# testProtocol: Solubilities of molsidomine in various solvents (saturation at 32° C., HPLC)
# Format: physicochemical
# experimentalParameters: organic solvent or mixture; Propylene Glycol (PG); read-out: Solubilities
property: solubility (mg/mL)

* CCOC(=O)[N-]c1cn(N2CCOCC2)n[o+]1 | 85.5

* * *

# testProtocol: Solubilities of molsidomine in various solvents (saturation at 32° C., HPLC)
# Type: physicochemical
# experimentalParameters: aqueous buffer; Phosphate buffer pH 5.68; read-out: Solubilities
property: solubility (mg/mL)

- CCOC(=O)[N-]c1cn(N2CCOCC2)n[o+]1 [Molsidomine]: 12.3

* * *

# testProtocol: Solubilities of molsidomine in various solvents (saturation at 32° C., HPLC)
# Format: physicochemical
# experimentalParameters: propylene glycol:pgml (10%), organic solvent or mixture; PG:PGML (10%); read-out: Solubilities
property: solubility (mg/mL)

* CCOC(=O)[N-]c1cn(N2CCOCC2)n[o+]1 [Molsidomine] | 92.9

These entries and their values trace back to patent US5308625A.
